- study_target: human PAD4 (hPAD4) (Homo sapiens (Human))
- assay_comment: RFMS Human PAD4 Functional Assay 1
- measurement_parameters: RFMS assay 1; 5 nM hPAD4, 250 μM BAEE substrate, 50 μM calcium, 37° C.
# pIC50 per record follows
The meaning of pIC50 here: minus log10 of the concentration in molar units.

# example entries with known answers
CCOCC(=O)N1CCC(c2cccc3cc(-c4nn5cc(C(=O)N6CCC[C@@H](N)C6)ccc5c4C)n(CC4CC4)c23)CC1 [Example 441] :: 7.22
Cc1c(-c2cc3cccc(C4CCN(C(=O)C5CC(O)C5)CC4)c3n2CC2CC2)nn2cc(C(=O)N3C[C@H](N)C[C@@H](F)C3)ccc12 (mixture of isomers) [Example 466] :: 6.72
COc1cc(C(=O)N2C[C@H](N)C[C@@H](F)C2)cn2nc(-c3cc4ccc(-c5ccc(NC(C)=O)nc5)cc4n3CC3CC3)c(C)c12 [Example 226] :: 7.30
COCC(=O)N1CC(c2cccc3cc(-c4nn5cc(C(=O)N6CCC[C@@H](N)C6)ccc5c4C)n(CC4CC4)c23)C1 [Example 546] :: 6.25

Pending compound:
Item under review: Cc1c(-c2cc3cc(F)cc(C4CCN(C(=O)C5CCCO5)CC4)c3n2CC2CC2)nn2cc(C(=O)N3C[C@H](N)C[C@@H](F)C3)ccc12 (single isomer, unassigned) [Example 491] . Reported pIC50?
5.88

====

- study_target: human PAD4 (hPAD4) (Homo sapiens (Human))
- assay_comment: RFMS Human PAD4 Functional Assay 1
- measurement_parameters: RFMS assay 1; 5 nM hPAD4, 250 μM BAEE substrate, 50 μM calcium, 37° C.
outcome_measure: pIC50
The meaning of pIC50 here: minus log10 of the concentration in molar units.

# example entries with known answers
Cc1c(-c2cc3ccc(-c4ccc(C(N)=O)c(F)c4)nc3n2CC2CC2)oc2cc(C(=O)N3CC4CCC3[C@@H]4N)ccc12 (stereo partly drawn) :: 6.87
COc1cc(C(=O)N2CC3CCC2[C@@H]3N)cn2nc(-c3cc4ccnc(OCC5CNC(=O)C5)c4n3CC3CC3)c(C)c12 (single isomer, unassigned; isomer 1) [Example 605] :: 7.15

Pending molecule:
Query for human PAD4 (hPAD4) (Homo sapiens (Human)): what pIC50 does the record show for Cc1c(-c2cc3cccc(OC[C@H]4CCC(=O)N4)c3n2CC2CC2)nn2cc(C(=O)N3CCC[C@@H](N)C3)ccc12 ?
6.82

====

# pIC50 per record follows
- study_target: human PAD4 (hPAD4) (Homo sapiens (Human))
- assay_comment: RFMS Human PAD4 Functional Assay 1
- measurement_parameters: RFMS assay 1; 5 nM hPAD4, 250 μM BAEE substrate, 50 μM calcium, 37° C.
- Protocol: RFMS Human PAD4 Functional Assay 1: Compounds were solubilized in 100% DMSO to achieve all) mM compound concentration. Compound stock solutions were stored at RT. A series of dilutions were prepared in DMSO and mixed 8 times with 20 μL mixing volume. Final top concentration of compound in the assay is 50 μM. […] MRM transition of product and internal standard were monitored at m/z 424.5 to 350.4 and m/z 293 to 247 respectively. […]
The meaning of pIC50 here: minus log10 of the concentration in molar units.

# example entries with known answers
COC(C)(C)C(=O)N1CCC(c2cccc3cc(-c4nn5cc(C(=O)N6CCC[C@@H](N)C6)cc(F)c5c4C)n(CC4CC4)c23)CC1 :: 5.77
COC1CN(c2ccc3cc(-c4oc5cc(C(=O)N6CC7CCC6[C@@H]7N)ccc5c4C)n(CC4CC4)c3n2)C1 (stereo partly drawn) :: 7.05

Item under review: Cc1c(-c2cc3cccc(OC[C@H]4CCC(=O)N4)c3n2CC2CC2)nn2cc(C(=O)N3C[C@H](N)C[C@@H](F)C3)ccc12 . Reported pIC50?
5.95

====

- study_target: human PAD4 (hPAD4) (Homo sapiens (Human))
- assay_comment: RFMS Human PAD4 Functional Assay 1
- measurement_parameters: RFMS assay 1; 5 nM hPAD4, 250 μM BAEE substrate, 50 μM calcium, 37° C.
outcome_measure: pIC50
The meaning of pIC50 here: minus log10 of the concentration in molar units.

Cc1c(-c2cc3ccc(-c4ccc(C(N)=O)cc4Cl)cc3n2CC2CC2)nn2cc(C(=O)N3CC4CCC3[C@@H]4N)cc(F)c12 (stereo partly shown) :: 6.70

Item under review: COc1cc(C(=O)N2C[C@H](N)C[C@@H](F)C2)cn2nc(-c3cc4cccc(C5CCN(C(=O)[C@H]6CC[C@@H](O)CC6)CC5)c4n3CC3CC3)c(C)c12 . Reported pIC50?
7.52

Item under review: COc1cc(C(=O)N2CCC[C@@H](N)C2)cn2nc(-c3cc4cccc(C5CCN(C(=O)C6CCCCO6)CC5)c4n3CC3CC3)c(C)c12 (single isomer, unassigned) [Example 387] . Reported pIC50?
6.64

Item under review: COc1cc(C(=O)N2CCC[C@@H](N)C2)cn2nc(-c3cc4cccc(OC[C@H]5CCC(=O)N5)c4n3CC3CC3)c(C)c12 . Reported pIC50?
6.19

====

# pIC50 per record follows
- study_target: human PAD4 (hPAD4) (Homo sapiens (Human))
- assay_comment: RFMS Human PAD4 Functional Assay 1
- Type: biochemical
- measurement_parameters: RFMS assay 1; 5 nM hPAD4, 250 μM BAEE substrate, 50 μM calcium, 37° C.
The meaning of pIC50 here: minus log10 of the concentration in molar units.

# example entries with known answers
Cc1c(O)cccc1-c1ccc2cc(-c3nn4cc(C(=O)N5CC6CCC5[C@@H]6N)cc(F)c4c3C)n(CC3CC3)c2n1 (stereo partly shown) :: 7.70
COc1cc(C(=O)N2C[C@H](N)C[C@@H](F)C2)cn2nc(-c3cc4ccc(-c5ccccc5C(N)=O)cc4n3CC3CC3)c(C)c12 :: 6.89
COc1cc(C(=O)N2C[C@H](N)C[C@@H](F)C2)cn2nc(-c3cc4ccc(-c5ccc6c(c5)CNC6=O)cc4n3CC3CC3)c(C)c12 :: 7.08

Item under review: COc1cc(C(=O)N2CC3CCC2[C@@H]3N)cn2nc(-c3cc4ccc(N5CC(OC)C5)nc4n3CC3CC3)c(C)c12 (stereo partly shown) . Reported pIC50?
6.79

====

- study_target: human PAD4 (hPAD4) (Homo sapiens (Human), UniProt Q9UM07)
- Sequence (Q9UM07 whole entry): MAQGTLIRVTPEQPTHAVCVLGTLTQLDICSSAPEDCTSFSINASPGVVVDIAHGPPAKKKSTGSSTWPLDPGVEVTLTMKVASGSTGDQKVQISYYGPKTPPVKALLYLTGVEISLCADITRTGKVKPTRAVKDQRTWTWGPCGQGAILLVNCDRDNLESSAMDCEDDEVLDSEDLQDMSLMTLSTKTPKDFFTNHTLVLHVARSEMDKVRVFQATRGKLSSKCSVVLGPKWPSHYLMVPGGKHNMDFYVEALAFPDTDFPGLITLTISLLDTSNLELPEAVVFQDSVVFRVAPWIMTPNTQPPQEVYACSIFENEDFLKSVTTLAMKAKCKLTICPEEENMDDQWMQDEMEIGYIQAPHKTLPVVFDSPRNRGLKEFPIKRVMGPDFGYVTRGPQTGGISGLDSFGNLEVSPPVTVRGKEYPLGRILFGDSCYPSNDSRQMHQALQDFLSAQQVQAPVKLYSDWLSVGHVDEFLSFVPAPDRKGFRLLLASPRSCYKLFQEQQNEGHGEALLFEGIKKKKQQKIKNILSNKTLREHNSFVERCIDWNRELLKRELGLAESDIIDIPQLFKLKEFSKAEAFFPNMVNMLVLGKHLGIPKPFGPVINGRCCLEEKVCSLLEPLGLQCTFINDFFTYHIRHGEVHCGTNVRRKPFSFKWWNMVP
- assay_comment: RFMS Human PAD4 Functional Assay 1
- measurement_parameters: RFMS assay 1; 5 nM hPAD4, 250 μM BAEE substrate, 50 μM calcium, 37° C.
pIC50: −log10 of the molar value.
Everything with pIC50 lower than 7 is False; everything else, including exactly 7, is True.

Some solved entries appear below for comparison.
COc1cc(C(=O)N2C[C@H](N)C[C@@H](F)C2)cn2nc(-c3cc4ccnc(OCCn5ccnc5C)c4n3CC3CC3)c(C)c12 :: False
Cc1c(-c2cc3cc(F)cc(C4CCN(C(=O)C5CC(O)(C(F)(F)F)C5)CC4)c3n2CC2CC2)nn2cc(C(=O)N3C[C@H](N)C[C@@H](F)C3)ccc12 (mixture of isomers) :: True
Cc1c(-c2cc3ccc(-c4ccc5[nH]ncc5c4)cc3n2CC2CC2)nn2cc(C(=O)N3CC4CCC3[C@@H]4N)ccc12 (stereo partly shown) :: True
COc1cc(C(=O)N2CCC[C@@H](N)C2)cn2nc(-c3cc4cccc(C5CN(C(=O)C(C)(C)OC)C5)c4n3CC3CC3)c(C)c12 :: False

Switching to the query record.
Hi, just wondering whether COc1cc(C(=O)N2C[C@H](N)C[C@@H](F)C2)cn2nc(-c3cc4cccc(C5CN(C(=O)[C@H]6CC[C@H](O)CC6)C5)c4n3CC3CC3)c(C)c12 shows pIC50 of 7 or higher.
True

====

# pIC50 per record follows
- study_target: human PAD4 (hPAD4) (Homo sapiens (Human), UniProt Q9UM07)
- assay_comment: RFMS Human PAD4 Functional Assay 1
- measurement_parameters: RFMS assay 1; 5 nM hPAD4, 250 μM BAEE substrate, 50 μM calcium, 37° C.
The meaning of pIC50 here: minus log10 of the concentration in molar units.

# example entries with known answers
Cc1c(-c2cc3ccc(-c4ccc(OC(F)F)c(F)c4)nc3n2CC2CC2)nn2cc(C(=O)N3CC4CCC3[C@@H]4N)ccc12 (stereo partly drawn) [Example 73] :: 6.22
CC(=O)N1CCC(c2cccc3cc(-c4nn5cc(C(=O)N6C[C@H](N)C[C@@H](F)C6)ccc5c4C)n(CC4CC4)c23)CC1 [Example 452] :: 7.52
COc1cc(C(=O)N2C[C@H](N)C[C@@H](F)C2)cn2nc(-c3cc4ccc(-c5cccc6[nH]ncc56)cc4n3CC3CC3)c(C)c12 [Example 222] :: 6.00
Cc1cc(-c2ccc3cc(-c4nn5cc(C(=O)N6CCC[C@@H](N)C6)cc(F)c5c4C)n(CC4CC4)c3n2)ccc1C(N)=O [Example 286] :: 6.27
Cc1c(-c2cc3cccc(C4CCN(C(=O)CO)CC4)c3n2CC2CC2)nn2cc(C(=O)N3C[C@H](N)C[C@@H](F)C3)ccc12 [Example 438] :: 7.52
COc1cc(C(=O)N2CCC[C@@H](N)C2)cn2nc(-c3cc4cccc(C5CCN(C(=O)C6CC(O)C6)CC5)c4n3CC3CC3)c(C)c12 (single isomer, unassigned) [Example 396] :: 6.96

Item under review: COc1cc(C(=O)N2CCC[C@@H](N)C2)cn2nc(-c3cc4cccc(OCC5CC(=O)N(C)C5)c4n3CC3CC3)c(C)c12 (single isomer, unassigned) [Example 552] . Reported pIC50?
7.00

Item under review: Cc1c(-c2cc3ccc(-c4ccc(OC(F)F)cc4)nc3n2CC2CC2)nn2cc(C(=O)N3CC4CCC3[C@@H]4N)cc(F)c12 (stereo partly drawn) [Example 47] . Reported pIC50?
5.83

Item under review: Cc1c(-c2cc3ccc(C4CC4)nc3n2CC2CC2)nn2cc(C(=O)N3C[C@H](N)C[C@@H](F)C3)cc(F)c12 [Example 57] . Reported pIC50?
6.11

Item under review: Cc1c(-c2cc3cccc(C4CCN(C(=O)C5CCCO5)CC4)c3n2CC2CC2)nn2cc(C(=O)N3CCC[C@@H](N)C3)ccc12 (mixture of isomers) [Example 462] . Reported pIC50?
7.52

Item under review: CC(=O)N(C)C1CCN(c2ccc3cc(-c4nn5cc(C(=O)N6CCC[C@@H](N)C6)cc(F)c5c4C)n(CC4CC4)c3n2)CC1 [Example 271] . Reported pIC50?
5.68
